Experiment: Plasma stability, mouse plasma
Format: in vitro ADME
Details: Table 2B, 37 °C, read-out: Plasma Stability Mouse t1/2
EXPERIMENTAL_ENDPOINT: half-life

# annotated cases, reported half-life shown
MOLECULE | EXPERIMENTAL_ENDPOINT | VALUE_REPORTED
[2H]C([2H])([2H])N(CC(=O)[O-])C(=N)NC(=O)CCCCCCCCCCCO.[Na+] [Compound 56] | half-life | > 3 h
[2H]C([2H])([2H])N(CC(=O)OC(C)(C)C(C)C)C(=N)NC(=O)CCCCCCCCCC [Compound 62] | half-life | 1.27 h
[2H]C([2H])([2H])N(CC(=O)[O-])C(=N)NC(=O)CCCCCCCCCO.[Na+] [Compound 58] | half-life | > 3 h
[2H]C([2H])([2H])N(CC(=O)OC(C)(C)C(C)(C)O)C(=N)NC(=O)CCCCCCCCCC [Compound 61] | half-life | < 0.0833 h
[2H]C([2H])([2H])N(CC(=O)OC(C)(C)C(C)(C)O)C(=N)NC(=O)CCCCCC [Compound 63] | half-life | < 0.0833 h

Q: If you can, please state the reported half-life value of [2H]C([2H])([2H])N(CC(=O)O)C(=N)NC(=O)CCCCCCCCCCO [Compound 54] .
Result: > 3 h

Q: Entry [2H]C([2H])([2H])N(CC(=O)OC(C)(C)C(C)C)C(=N)NC(=O)CCCCCC [Compound 60] : reported half-life = ?
Result: > 3 h

Q: What half-life value was documented for this molecule, [2H]C([2H])([2H])N(CC(=O)[O-])C(=N)NC(=O)CCCCCCCCCC(C)O.[Na+] (centres unmarked) [Compound 57] ?
Result: > 3 h

---

Assay: Plasma stability, human plasma
Type: in vitro ADME
Details: Table 2C, macrocycles, 37 °C, read-out: Plasma Stability Human t1/2
Counter-ions that a name gives are not always drawn.
EXPERIMENTAL_ENDPOINT: half-life (min)

Examples with their reported half-life follow.
COMPOUND | UNIT_OF_MEASUREMENT | half-life
[2H]C([2H])([2H])N1CC(=O)OC(C)(C)CCCCCCCCCC(=O)NC1=N [Compound U] | min | 72
[2H]C([2H])([2H])N1CC(=O)O[C@H](C)CCCCCCCCCC(=O)NC1=N [Compound Q, Hydrochloride] | min | 10
Cl.[2H]C([2H])([2H])N1CC(=O)O[C@@H](C)CCCCCCCCCC(=O)NC1=N [Compound PP] | min | 8

I: Cl.[2H]C([2H])([2H])N1CC(=O)OC(C)CCCCCCCCCC(=O)NC1=N (stereo not shown) [Compound K]
II: [2H]C([2H])([2H])N1CC(=O)OCCCCCCCCC(=O)NC1=N [Compound DD]
III: Cl.[2H]C([2H])([2H])N1CC(=O)OC(CC)CCCCCCCCCC(=O)NC1=N (stereo not shown) [Compound L]
Q: List from greatest to least half-life. Present the labels in the sequence the task asks for.
Result: III, I, II
(III: 34 min, I: 13 min, II: 8.3 min)

---

Assay: Prodrug cleavage in human brain homogenates (HBH): d3-Cr release and d3-Crn cyclization
Assay type: in vitro ADME
Details: 200 μM prodrug, 3 h; % of nominal input
EXPERIMENTAL_ENDPOINT: Prodrug Cleavage Human BH d3-Crn release (%)

Recorded Prodrug Cleavage Human BH d3-Crn release, per entry:
MOLECULE | UNIT_OF_MEASUREMENT | Prodrug Cleavage Human BH d3-Crn release
Cl.[2H]C([2H])([2H])N(CC(=O)OC(C)C)C(=N)NC(=O)CCCCCCCCCC [Compound 12-HCl] | % | 265.7
[2H]C([2H])([2H])N(CC(=O)[O-])C(=N)NC(=O)CCCCCCCCCCCCC.[Li+] [Compound 7] | % | 0.8
Cl.[2H]C([2H])([2H])N(CC(=O)OC(C)C)C(=N)NC(=O)CCCCCCCCCCCC [Compound 10-HCl] | % | 251.5

a: Cl.[2H]C([2H])([2H])N(CC(=O)OC(C)C)C(=N)NC(=O)CCCCCCC/C=C\CCCCCCCC [Compound 45]
b: Cl.[2H]C([2H])([2H])N(CC(=O)OCC(C)(C)C)C(=N)NC(=O)CCCCCCCCCC [Compound 39]
Q: Larger number for Prodrug Cleavage Human BH d3-Crn release: a , or b ? State the label of the item chosen.
Result: b
